Test system: Mycobacterium tuberculosis
Experiment: Antimicrobial activity against Mycobacterium tuberculosis H37Rv ATCC 27294 by microplate Alamar Blue assay
Format: functional
Recorded MIC split into classes low range: < 3 µg/mL; mid range: ≥ 3 µg/mL and < 10 µg/mL; high range: ≥ 10 µg/mL

N#Cc1c(NC(=O)c2cccs2)[n+]([O-])c2ccccc2[n+]1[O-]: mid range
N#Cc1c(NC(=O)c2ccco2)[n+]([O-])c2cc(C(F)(F)F)ccc2[n+]1[O-]: high range
N#Cc1c(NC(=O)c2ccco2)[n+]([O-])c2ccccc2[n+]1[O-]: low range
Cc1ccc2c(c1)[n+]([O-])c(C#N)c(NC(=O)c1ccco1)[n+]2[O-]: mid range
N#Cc1c(NC(=O)c2ccco2)[n+]([O-])c2cc(F)c(F)cc2[n+]1[O-]: mid range
N#Cc1c(NC(=O)c2ccc([N+](=O)[O-])s2)[n+]([O-])c2ccccc2[n+]1[O-]: low range

Ask: Pick a category. Item: CO[C@H]1/C=C/O[C@@]2(C)Oc3c(C)c(O)c4c(O)c(c(/C=N/N5CCN(C)CC5)c(O)c4c3C2=O)NC(=O)/C(C)=C\C=C\[C@H](C)[C@H](O)[C@@H](C)[C@@H](O)[C@@H](C)[C@H](OC(C)=O)[C@@H]1C
Reply: low range

Ask: Pick a category. Item: COc1ccc2c(c1)[n+]([O-])c(C#N)c(NC(=O)c1ccc([N+](=O)[O-])s1)[n+]2[O-]
Reply: mid range

Ask: Pick a category. Item: COc1ccc2c(c1)[n+]([O-])c(C#N)c(NC(=O)c1cccs1)[n+]2[O-]
Reply: high range

---

Tested on: Mycobacterium tuberculosis
Assay: Antimicrobial activity against Mycobacterium tuberculosis H37Rv ATCC 27294 by microplate Alamar Blue assay
Format: functional
Here the recorded MIC is given for each entry.
Field: numeric (µg/mL). Do not append units.

Solved entries:
N#Cc1c(NC(=O)c2ccc([N+](=O)[O-])s2)[n+]([O-])c2ccc(C(F)(F)F)cc2[n+]1[O-]: 6
Cc1cc2c(cc1C)[n+]([O-])c(NC(=O)c1cccs1)c(C#N)[n+]2[O-]: 1.19
N#Cc1c(NC(=O)c2ccc([N+](=O)[O-])s2)[n+]([O-])c2cc(C(F)(F)F)ccc2[n+]1[O-]: 1.7

The molecule listed as N#Cc1c(NC(=O)c2ccc([N+](=O)[O-])o2)[n+]([O-])c2cc(F)c(F)cc2[n+]1[O-] has a reported MIC of 22.2

The molecule listed as N#Cc1c(NC(=O)c2ccco2)[n+]([O-])c2ccc(Cl)cc2[n+]1[O-] has a reported MIC of 15.4

The molecule listed as Cc1ccc2c(c1)[n+]([O-])c(C#N)c(NC(=O)c1cccs1)[n+]2[O-] has a reported MIC of 2.08

The molecule listed as N#Cc1c(NC(=O)c2ccc([N+](=O)[O-])o2)[n+]([O-])c2cc(Cl)c(Cl)cc2[n+]1[O-] has a reported MIC of 13.6

The molecule listed as N#Cc1c(NC(=O)c2ccc([N+](=O)[O-])o2)[n+]([O-])c2cc(C(F)(F)F)ccc2[n+]1[O-] has a reported MIC of 12.8

The molecule listed as N#Cc1c(NC(=O)c2ccco2)[n+]([O-])c2ccc(C(F)(F)F)cc2[n+]1[O-] has a reported MIC of 24.2

The molecule listed as N#Cc1c(NC(=O)c2cccs2)[n+]([O-])c2cc(F)ccc2[n+]1[O-] has a reported MIC of 4.58

The molecule listed as N#Cc1c(NC(=O)c2cccs2)[n+]([O-])c2cc(Cl)c(Cl)cc2[n+]1[O-] has a reported MIC of 13.6

The molecule listed as N#Cc1c(NC(=O)c2ccc([N+](=O)[O-])o2)[n+]([O-])c2ccc(Cl)cc2[n+]1[O-] has a reported MIC of 5.81

The molecule listed as N#Cc1c(NC(=O)c2ccc([N+](=O)[O-])o2)[n+]([O-])c2ccc(F)cc2[n+]1[O-] has a reported MIC of 21.7
